Values from patent EP4786492A1

The reader will find reported MFI values listed item by item below.
ASSAY_SYSTEM: human DLL3 endogenously expressed on SHP77 and NCI-H82 cells (human) (UniProt Q9NYJ7)
Sequence (Q9NYJ7 27-618): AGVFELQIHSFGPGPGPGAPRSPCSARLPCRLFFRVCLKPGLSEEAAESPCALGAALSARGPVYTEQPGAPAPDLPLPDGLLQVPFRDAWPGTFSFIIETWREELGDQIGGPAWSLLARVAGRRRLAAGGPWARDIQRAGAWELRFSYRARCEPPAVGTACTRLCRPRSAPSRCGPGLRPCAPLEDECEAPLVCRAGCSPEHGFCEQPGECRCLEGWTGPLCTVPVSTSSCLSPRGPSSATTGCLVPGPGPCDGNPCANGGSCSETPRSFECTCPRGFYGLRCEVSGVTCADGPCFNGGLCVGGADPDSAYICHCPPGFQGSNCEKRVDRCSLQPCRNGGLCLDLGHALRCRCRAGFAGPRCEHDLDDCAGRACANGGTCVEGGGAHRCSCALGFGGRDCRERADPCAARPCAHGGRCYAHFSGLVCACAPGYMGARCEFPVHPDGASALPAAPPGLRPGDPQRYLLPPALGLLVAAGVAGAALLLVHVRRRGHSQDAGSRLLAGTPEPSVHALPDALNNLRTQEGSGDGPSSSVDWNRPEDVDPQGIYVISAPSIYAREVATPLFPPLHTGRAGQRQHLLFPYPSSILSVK
TEST_NAME: FACS SHP77 cells, 0.032 nM
PARAMETER: MFI (MFI)

>  <BINDER>
mab010 scFv-hFc (Fc fusion, not shown: small tags and cut ends; a dimerising Fc or GST) scFv (part 1 of 2): DIQMTQSPASLSVSVGETVTITCRASENINSNLAWYQQKQGKSPQLLVYAATNLADGVPSRFSGSGSGTQFSLKISGLQSEDFGSYYCQHFWGLPWTFGGGTKLEIR scFv (part 2 of 2): QVQLQQSGAELARPGASMKLSCKASGYTFTSYGISWVKQITGQGLEWIGEIFPRSGNTYDNENFRGKATLTADKSSSTAYLEVRSLTSEDSAVYFCARTTVFAPYYFDYWGQGTTLTVSS

>  <PARAMETER>
MFI

>  <NUMERIC_VALUE>
278

$$$$
>  <BINDER>
mab003 scFv-hFc (Fc fusion, part only; not given: VL-VH linker and human IgG1 Fc, not shown: another chain or arm of the molecule; a dimerising Fc or GST; small tags and cut ends) scFv (part 1 of 2): DVQITQSPSYLAASPGETITINCRASKSISKYLAWYQEKPGKTNKLLIYSGSTLHSGIPSRFSGSGSGTDFTLTISSLEPEDFAIYYCQQHNEYPLTFGGGTKLELK scFv (part 2 of 2): QVQLQQSGTELMKPGASVKLSCKATGYTFTGNWIEWVKQRPGHGLEWIGEILPGTGSTQYNEKFKGKATFTADPSSNTAYMQLSSLTTEDSAIYYCARWGSTVVAYDYWGQGTTLTVSS

>  <PARAMETER>
MFI

>  <NUMERIC_VALUE>
351

$$$$
>  <BINDER>
mab014 scFv-hFc (Fc fusion, not shown: small tags and cut ends; a dimerising Fc or GST) scFv (part 1 of 2): DIQMTQSSSSFSVSLGDRVTITCKASEDIYNRLAWYQQKPGNTPRLLISGATSLETGVPSRFSGSGSGKDFTLSITSLQTEDVATYYCQQYWSLPWTFGGGTKLEIK scFv (part 2 of 2): EVQLHQSGPELVKPGTSVKISCKASGYTFTDYYMNWVKQSHGKSLEWIGDINPNHGDTGYNQKFTGKATLTVDKSSSTAYMELRSLTSEDSAVYYCARNFFYYGTTYGWYFDVWGTGTTVTVSS

>  <PARAMETER>
MFI

>  <NUMERIC_VALUE>
137

$$$$
